Listed next: entries and their corresponding Kd.
Biological target: T1, mIL2-his (mouse, UniProt P04351 21-169)
T1 construct: also called wild-type mouse IL-2 (with a his-tag); not shown: his-tag
T1 sequence (looked up): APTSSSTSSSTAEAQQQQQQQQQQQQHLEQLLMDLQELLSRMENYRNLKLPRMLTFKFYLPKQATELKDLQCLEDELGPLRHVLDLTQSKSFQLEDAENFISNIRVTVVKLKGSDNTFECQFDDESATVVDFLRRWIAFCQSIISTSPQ
Test: BLI ForteBio, Ab on Protein A sensor
Value expressed in nM; do not type the unit.

The cases that follow already have their Kd on record.
Determine its reported Kd: hS4B6-H3K3 (antibody, V domains shown, full antibody) VH: QVTLKESGPVLVKPTQTLTLTCTVSGDTITAYYLHWIRQPPGKALEWIGRIDPEDDSTKYAENFKNRLTFSADTSKNQVVLTMTNMDPVDTATYYCARVTFYYSRELRWFAYWGQGTLVTVSS VL: DIVLTQSPATLSLSPGERATLSCQASQDIGNYLSWYQQKPGQAPRLLIYSATSLADGIPARFSGSRSGTDYTLTISSLEPEDFAVYYCLQHYSTPYTFGQGTKLEIK 13.2

Determine its reported Kd: hS4B6-H6K7 (antibody, V domains shown, full antibody) VH: QVQLVQSGAEVKKPGATVKISCKVSGDTITAYYLHWVRQAPGQGLEWIGRIDPEDDSTKYAENFKNRVTITADTSTNTAYMELSSLRSEDTAVYYCTTVTFYYSRELRWFAYWGQGTLVTVSS VL: DIQMTQSPSSLSASVGDRVTITCQASQDIGNYLSWYQQKPGKAPKLLIHSATSLADGVPSRFSGSGSGTDFTLTISSLQPEDFATYYCLQHYSTPYTFGGGTKVEIK 1.4

Read the next record carefully.
Determine its reported Kd: hS4B6-H6K3 (antibody, V domains shown, full antibody) VH: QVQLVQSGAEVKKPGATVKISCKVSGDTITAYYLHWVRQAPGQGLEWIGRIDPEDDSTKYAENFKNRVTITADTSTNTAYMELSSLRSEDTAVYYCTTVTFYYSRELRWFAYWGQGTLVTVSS VL: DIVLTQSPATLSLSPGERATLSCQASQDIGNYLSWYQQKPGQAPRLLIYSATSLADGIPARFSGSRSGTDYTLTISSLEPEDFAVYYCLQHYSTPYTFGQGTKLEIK 1

Source listed as patent US20250346644A1.
